experimental-target: aprataxin FHA domain (residues 1-105)
Sequence (chain, as listed by the source): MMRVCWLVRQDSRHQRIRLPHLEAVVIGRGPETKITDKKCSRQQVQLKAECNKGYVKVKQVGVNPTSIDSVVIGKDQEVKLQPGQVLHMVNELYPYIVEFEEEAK
assay: ITC
Square brackets hold non-standard residues; d marks the D form. Ends that are not written are not given here. pT = C[C@@H](OP(=O)(O)O)[C@H](N)C(=O)O; pS = N[C@@H](COP(=O)(O)O)C(=O)O
Give Kd for every item shown.

Record excerpt, results attached:
YAG[pS][pT]DEN[pT]DSEEHQ-NH2 (N-terminus assumed; SMILES C[C@H](NC(=O)[C@@H](N)Cc1ccc(O)cc1)C(=O)NCC(=O)N[C@@H](COP(=O)(O)O)C(=O)N[C@H](C(=O)N[C@@H](CC(=O)O)C(=O)N[C@@H](CCC(=O)O)C(=O)N[C@@H](CC(N)=O)C(=O)N[C@H](C(=O)N[C@@H](CC(=O)O)C(=O)N[C@@H](CO)C(=O)N[C@@H](CCC(=O)O)C(=O)N[C@@H](CCC(=O)O)C(=O)N[C@@H](Cc1c[nH]cn1)C(=O)N[C@@H](CCC(N)=O)C(N)=O)[C@@H](C)OP(=O)(O)O)[C@@H](C)OP(=O)(O)O) [XRCC1 515-529 peptide phosphorylated on Ser518, Thr519 and Thr523]
500 nM
YDESTDEES (HELM PEPTIDE1{Y.D.E.[O=C([C@H](COP(=O)(O)O)N[*:1])[*:2]].[C[C@@H](OP(=O)(O)O)[C@H](N[*:1])C(=O)[*:2]].D.E.E.S.[am]}$$$$V2.0; N-terminus assumed; SMILES C[C@@H](OP(=O)(O)O)[C@H](NC(=O)[C@H](COP(=O)(O)O)NC(=O)[C@H](CCC(=O)O)NC(=O)[C@H](CC(=O)O)NC(=O)[C@@H](N)Cc1ccc(O)cc1)C(=O)N[C@@H](CC(=O)O)C(=O)N[C@@H](CCC(=O)O)C(=O)N[C@@H](CCC(=O)O)C(=O)N[C@@H](CO)C(N)=O) [XRCC4 229-237 peptide phosphorylated on Ser232 and Thr233]
250 nM
YDESTDEES (HELM PEPTIDE1{Y.D.E.S.[C[C@@H](OP(=O)(O)O)[C@H](N[*:1])C(=O)[*:2]].D.E.E.S.[am]}$$$$V2.0; N-terminus assumed; SMILES C[C@@H](OP(=O)(O)O)[C@H](NC(=O)[C@H](CO)NC(=O)[C@H](CCC(=O)O)NC(=O)[C@H](CC(=O)O)NC(=O)[C@@H](N)Cc1ccc(O)cc1)C(=O)N[C@@H](CC(=O)O)C(=O)N[C@@H](CCC(=O)O)C(=O)N[C@@H](CCC(=O)O)C(=O)N[C@@H](CO)C(N)=O) [XRCC4 229-237 peptide phosphorylated on Thr233]
2100 nM
YDE[pS][pT]DEE[pS]-NH2 (N-terminus assumed; SMILES C[C@@H](OP(=O)(O)O)[C@H](NC(=O)[C@H](COP(=O)(O)O)NC(=O)[C@H](CCC(=O)O)NC(=O)[C@H](CC(=O)O)NC(=O)[C@@H](N)Cc1ccc(O)cc1)C(=O)N[C@@H](CC(=O)O)C(=O)N[C@@H](CCC(=O)O)C(=O)N[C@@H](CCC(=O)O)C(=O)N[C@@H](COP(=O)(O)O)C(N)=O) [XRCC4 229-237 peptide phosphorylated on Ser232, Thr233 and Ser237]
140 nM

Query :: What value of Kd has been recorded for this entry: YAG[pS][pT]DEN[pT]D[pS]EEHQ-NH2 (N-terminus assumed; SMILES C[C@H](NC(=O)[C@@H](N)Cc1ccc(O)cc1)C(=O)NCC(=O)N[C@@H](COP(=O)(O)O)C(=O)N[C@H](C(=O)N[C@@H](CC(=O)O)C(=O)N[C@@H](CCC(=O)O)C(=O)N[C@@H](CC(N)=O)C(=O)N[C@H](C(=O)N[C@@H](CC(=O)O)C(=O)N[C@@H](COP(=O)(O)O)C(=O)N[C@@H](CCC(=O)O)C(=O)N[C@@H](CCC(=O)O)C(=O)N[C@@H](Cc1c[nH]cn1)C(=O)N[C@@H](CCC(N)=O)C(N)=O)[C@@H](C)OP(=O)(O)O)[C@@H](C)OP(=O)(O)O) [XRCC1 515-529 peptide phosphorylated on Ser518, Thr519, Thr523 and Ser525]
Result :: 870 nM
